Biological target: OGA (Homo sapiens, UniProt O60502)
Construct: HEK293 cells inducible for P301L mutant human Tau (isoform 2N4R) were established at Janssen; endogenous in cells; host or cells: HEK293 cells inducible for P301L mutant human Tau (2N4R)
Assay: OGA cellular assay (ICC detection of O-GlcNAcylated proteins in HEK293 cells inducible for P301L mutant human Tau)
Format: cell-based
Conditions: HEK293, HEK293 cells inducible for P301L mutant human Tau, 6 hours incubation; maximum = Thiamet G 200 uM

compound	Emax (%)
CC(c1ccc2c(n1)OCCO2)N1CCC(Oc2ccc(C(F)(F)F)nc2)CC1 (stereo not shown) [Compound 68]	57
CC(c1ccc2c(n1)OCCO2)N1CCC(Oc2cc[nH]c(=O)c2)CC1 (stereo not shown) [Compound 93]	34
Cc1ccc(OC2CCN(C(C)c3nc4c(cc3F)OCCO4)CC2)nc1C (stereo not shown) [Compound 156]	67
Cc1cc(OC2CCN([C@@H](C)c3ccc4c(n3)OCCO4)CC2)cc(C(F)(F)F)n1 (single isomer, unassigned) [Compound 147]	81
CCc1cc(OC2CCN(C(C)c3ccc4c(n3)OCCO4)CC2)cc(C)n1 (stereo not shown) [Compound 129]	83
Cc1cc(OC2CCN([C@H](C)c3nc4c(cc3F)OCCO4)CC2)cc(C)n1 (single isomer, unassigned) [Compound 148]	82
COc1ccc(OC2CCN(C(C)c3ccc4c(n3)OCCO4)CC2)nc1 (stereo not shown) [Compound 99]	34
Cc1cc(OC2CCN(C(C)c3nc4c(cc3F)OCCO4)CC2)cc(C)n1 (stereo not shown) [Compound 4]	76
Cc1cc(OC2CCN([C@H](C)c3nc4c(cc3F)CCO4)CC2)cc(C)n1 (single isomer, unassigned) [Compound 144]	81
CC(c1ccc2c(n1)OCCO2)N1CCC(Oc2cncc(F)c2)CC1 (stereo not shown) [Compound 74]	44
Cc1cc(OC2CCN(C(C)c3ccc4sc(C)nc4n3)CC2)cc(C(F)(F)F)n1 (stereo not shown) [Compound 21]	55
Cc1cc(OC2CCN(C(C)c3ccc4c(n3)OCCO4)CC2)ncc1C#N (stereo not shown) [Compound 101]	53
C[C@@H](c1ccc2c(n1)OCCO2)N1CCC(Oc2ccc(C(N)=O)nn2)CC1 (single isomer, unassigned) [Compound 106]	48
CC(c1nc2c(cc1F)OCCO2)N1CCC(Oc2ccnc(C#N)c2)CC1 (stereo not shown) [Compound 155]	67
COc1nccnc1OC1CCN(C(C)c2ccc3c(n2)OCCO3)CC1 (stereo not shown) [Compound 108]	15
Cc1ncc(NC2CCN(C(C)c3nc4c(cc3F)OCCO4)CC2)cn1 (stereo not shown) [Compound 127]	81
CC(c1nc2c(cc1F)OCCO2)N1CCC(Oc2ccc(C(F)(F)F)cn2)CC1 (stereo not shown) [Compound 158]	77
COc1cc(OC2CCN(C(C)c3nc4c(cc3F)OCCO4)CC2)ncc1C#N (stereo not shown) [Compound 153]	67
Cc1cc(OC2CCN(C(C)c3ccc4c(c3)OCCO4)CC2)cc(C)n1 (stereo not shown) [Compound 25]	56
Cc1cc(OC2CCN(C(C)c3nc4c(cc3F)OCCO4)CC2)ccn1 (stereo not shown) [Compound 162]	83
CC(C)c1ncc(OC2CCN(C(C)c3ccc4c(n3)OCCO4)CC2)cn1 (stereo not shown) [Compound 119]	68
Cc1cc(OCC2CCN(C(C)c3ccc4c(n3)OCCO4)CC2)cc(C)n1 (stereo not shown) [Compound 75]	39
CC(c1ccc2c(n1)OCCO2)N1CCC(Oc2cnc(C3CC3)nc2)CC1 (stereo not shown) [Compound 120]	87
Cc1cc(OC2CCN([C@H](C)c3nc4c(cc3F)CCO4)CC2)cc(C)n1 (single isomer, unassigned) [Compound 143]	100
Cc1cc(COC2CCN(C(C)c3nc4c(cc3F)OCCO4)CC2)cc(C(F)(F)F)n1 (stereo not shown) [Compound 169]	87
Cc1ncc(OC2CCN(C(C)c3ccc4c(n3)OCCO4)CC2)cn1.Cl (stereo not shown) [Compound 90]	48
Cc1cc(OC2(CF)CCN(C(C)c3ccc4c(n3)OCCO4)CC2)cc(C)n1 (stereo not shown) [Compound 132]	24
Cc1cc(OC2CCN(C(C)c3cc4nc(C)sc4cc3F)CC2)cc(C)n1 (stereo not shown) [Compound 8]	89
Cc1cc(OC2CCN(C(C)c3nc4nc(C)sc4cc3F)CC2)nc(C)n1 (stereo not shown) [Compound 33]	65
Cc1cc(OC2CCN(C(C)c3ccc4c(n3)OCCO4)CC2)nc(C)n1 (single isomer, unassigned) [Compound 10]	73
Cc1cc(C)nc(OC2CCN(C(C)c3ccc4c(n3)OCCO4)CC2)c1 (stereo not shown) [Compound 71]	35
CC(c1ccc2c(n1)OCCO2)N1CCC(Oc2ccc(OC(F)(F)F)cn2)CC1 (stereo not shown) [Compound 96]	41
Cc1cc(OC2CCN(C(C)c3cnc4c(c3)OCCN4)CC2)cc(C)n1 (stereo not shown) [Compound 34]	77
COc1cc(OC2CCN(C(C)c3ccc4sc(C)nc4n3)CC2)cc(C)n1 (stereo not shown) [Compound 16]	91
